Target: T1, rhesus CD11a (rhesus) (UniProt H9Z8N3)
T1 sequence: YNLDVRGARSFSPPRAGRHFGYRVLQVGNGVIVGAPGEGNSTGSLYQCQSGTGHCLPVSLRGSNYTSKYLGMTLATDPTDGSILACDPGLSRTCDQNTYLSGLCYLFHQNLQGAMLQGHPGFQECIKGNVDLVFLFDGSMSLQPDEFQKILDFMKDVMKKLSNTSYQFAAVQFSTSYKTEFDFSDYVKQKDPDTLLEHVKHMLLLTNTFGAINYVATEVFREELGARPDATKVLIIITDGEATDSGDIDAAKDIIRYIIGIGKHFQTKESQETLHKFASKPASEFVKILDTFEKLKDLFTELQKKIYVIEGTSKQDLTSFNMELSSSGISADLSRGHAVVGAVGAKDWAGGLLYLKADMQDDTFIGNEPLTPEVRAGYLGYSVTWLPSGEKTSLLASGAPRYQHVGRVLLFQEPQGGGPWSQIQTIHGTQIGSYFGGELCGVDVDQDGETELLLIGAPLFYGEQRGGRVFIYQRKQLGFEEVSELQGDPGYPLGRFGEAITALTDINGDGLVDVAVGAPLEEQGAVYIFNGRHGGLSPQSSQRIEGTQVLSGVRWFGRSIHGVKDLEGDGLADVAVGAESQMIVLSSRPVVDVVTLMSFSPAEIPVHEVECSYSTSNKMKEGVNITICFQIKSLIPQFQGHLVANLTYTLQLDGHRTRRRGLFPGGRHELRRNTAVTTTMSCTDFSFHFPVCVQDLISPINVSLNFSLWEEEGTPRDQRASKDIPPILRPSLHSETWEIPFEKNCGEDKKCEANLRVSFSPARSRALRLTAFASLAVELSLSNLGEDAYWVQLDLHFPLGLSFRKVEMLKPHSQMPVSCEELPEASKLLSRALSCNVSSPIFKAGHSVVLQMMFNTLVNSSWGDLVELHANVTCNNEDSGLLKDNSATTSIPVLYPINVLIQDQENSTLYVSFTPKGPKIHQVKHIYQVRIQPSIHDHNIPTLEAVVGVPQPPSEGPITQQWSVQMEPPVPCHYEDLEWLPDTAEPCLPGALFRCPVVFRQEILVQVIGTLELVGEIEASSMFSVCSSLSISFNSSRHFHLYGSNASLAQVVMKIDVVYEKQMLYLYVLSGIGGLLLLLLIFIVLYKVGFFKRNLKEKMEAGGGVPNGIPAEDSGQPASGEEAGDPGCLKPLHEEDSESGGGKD
Test: binding to rhesus peripheral blood lymphocytes
Readout Label: Variant EC50/HulgG1 EC50
Number only, no unit.

Check out these entries, answers already filled in.
Binder	Recorded Value
AspH54Ser variant IgG1 (antibody, V domains shown) VH: EVQLVESGGGLVQPGGSLRLSCAASGYSFTGHWMNWVRQAPGKGLEWVGMIHPSSSETRYNQKFKDRFTISVDKSKNTLYLQMNSLRAEDTAVYYCARGIYFYGTTYFDYWGQGTLVTVSS VL: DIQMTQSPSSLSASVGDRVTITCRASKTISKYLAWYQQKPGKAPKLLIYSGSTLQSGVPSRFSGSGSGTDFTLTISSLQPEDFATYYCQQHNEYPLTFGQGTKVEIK	0.9
AspH54Lys variant IgG1 (antibody, V domains shown) VH: EVQLVESGGGLVQPGGSLRLSCAASGYSFTGHWMNWVRQAPGKGLEWVGMIHPSKSETRYNQKFKDRFTISVDKSKNTLYLQMNSLRAEDTAVYYCARGIYFYGTTYFDYWGQGTLVTVSS VL: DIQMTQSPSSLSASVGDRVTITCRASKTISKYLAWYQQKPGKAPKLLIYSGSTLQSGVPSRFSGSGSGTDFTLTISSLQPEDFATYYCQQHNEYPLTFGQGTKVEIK	3.8
AspH54Gln variant IgG1 (antibody, V domains shown) VH: EVQLVESGGGLVQPGGSLRLSCAASGYSFTGHWMNWVRQAPGKGLEWVGMIHPSQSETRYNQKFKDRFTISVDKSKNTLYLQMNSLRAEDTAVYYCARGIYFYGTTYFDYWGQGTLVTVSS VL: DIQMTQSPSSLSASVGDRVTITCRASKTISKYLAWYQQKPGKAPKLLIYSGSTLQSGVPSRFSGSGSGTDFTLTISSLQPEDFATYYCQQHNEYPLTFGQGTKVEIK	4.4

// returns reported Variant EC50/HulgG1 EC50 for input AspH54Ala variant IgG1 (antibody, V domains shown) VH: EVQLVESGGGLVQPGGSLRLSCAASGYSFTGHWMNWVRQAPGKGLEWVGMIHPSASETRYNQKFKDRFTISVDKSKNTLYLQMNSLRAEDTAVYYCARGIYFYGTTYFDYWGQGTLVTVSS VL: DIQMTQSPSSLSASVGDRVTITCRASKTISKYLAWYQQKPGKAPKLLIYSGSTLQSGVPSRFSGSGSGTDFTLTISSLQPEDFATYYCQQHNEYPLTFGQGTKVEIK 0.3

Which Variant EC50/HulgG1 EC50 value belongs to AspH54Asn variant IgG1 (antibody, V domains shown) VH: EVQLVESGGGLVQPGGSLRLSCAASGYSFTGHWMNWVRQAPGKGLEWVGMIHPSNSETRYNQKFKDRFTISVDKSKNTLYLQMNSLRAEDTAVYYCARGIYFYGTTYFDYWGQGTLVTVSS VL: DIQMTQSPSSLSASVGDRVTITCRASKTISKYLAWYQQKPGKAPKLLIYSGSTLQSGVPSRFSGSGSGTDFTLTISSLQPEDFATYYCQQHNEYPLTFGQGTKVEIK ? 0.1
